# Test system: Porcine atria myofibrils (atrial myosin ATPase)
# ASSAY INFO: Myofibril ATPase assay, porcine atria myofibrils
# Assay type: biochemical
# CONDITION NOTES: Y75 value (no ‡ mark); porcine atria myofibrils
QUANTITY: Atrial EC25 (µM)

Previously resolved entries follow.
Exercise: Provide the documented Atrial EC25 with Porcine atria myofibrils (atrial myosin ATPase) as the system for Cc1c(C(F)(F)C(=O)N[C@H](C)c2cccc(C#N)n2)c(=O)[nH]c2ccc(F)cc12 (single isomer, unassigned) [compound 2565]
Key: 14.39

Exercise: Provide the documented Atrial EC25 with Porcine atria myofibrils (atrial myosin ATPase) as the system for C[C@H](NC(=O)Cc1cc2c(C(F)(F)F)c(F)ccc2[nH]c1=O)c1ncc(C#N)cn1 (single isomer, unassigned) [compound 2010]
Key: 1.25

Exercise: Provide the documented Atrial EC25 with Porcine atria myofibrils (atrial myosin ATPase) as the system for Cc1nc(C#N)ncc1[C@H](C)NC(=O)Cc1c(C)c2c(F)c(F)ccc2[nH]c1=O [compound 1132]
Key: 0.10

[P] Cc1c(CC(=O)N[C@@H](C)c2ccc(C#N)cc2F)c(=O)[nH]c2ccc(F)c(C(F)(F)F)c12 [compound 38]
[Q] Cc1c(C2(C(=O)NC(C)c3cccc(C#N)n3)CC2)c(=O)[nH]c2ccc(F)cc12 (single isomer, unassigned) [Compound 2580]
[R] Cc1nc(C#N)ncc1[C@@H](C)NC(=O)Cc1c(C)c2c(F)c(F)ccc2[nH]c1=O [compound 1131]
[S] Cc1c(CC(=O)N[C@@H](C)c2ccc(C#N)cn2)c(=O)[nH]c2ccc(F)c(C3CC3)c12 [compound 24]
Exercise: Please give the order of these compounds when sorted by Atrial EC25, largest value leading. Record the ranking as a list of labels in the requested order.
Key: Q, R, S, P

[P] Cc1c(CC(=O)N[C@H](C)c2ccc(C#N)cn2)c(=O)[nH]c2ccc(F)c(F)c12 [compound 45]
[Q] C[C@H](NC(=O)Cc1cc2c(C#N)c(O)ccc2[nH]c1=O)c1ccc(F)cc1F [compound 82]
[R] Cc1c(C2(C(=O)N[C@@H](C)c3nccc(C#N)n3)CC2)c(=O)[nH]c2ccc(F)c(F)c12 (single isomer, unassigned) [compound 2510]
Exercise: Please give the order of these compounds when sorted by Atrial EC25, largest value leading. Record the ranking as a list of labels in the requested order.
Key: Q, R, P

---

# TARGET OF ASSAY: Porcine ventricle myofibrils (ventricular myosin ATPase) (Sus scrofa, UniProt P79293)
# Construct: Myofibrils from porcine cardiac muscle was isolated from the left ventricle of Yucatan minipigs; tissue Exemplar Genetics; host or cells: left ventricle of Yucatan minipigs, myofibrils prepared in house
# Sequence (P79293 whole entry): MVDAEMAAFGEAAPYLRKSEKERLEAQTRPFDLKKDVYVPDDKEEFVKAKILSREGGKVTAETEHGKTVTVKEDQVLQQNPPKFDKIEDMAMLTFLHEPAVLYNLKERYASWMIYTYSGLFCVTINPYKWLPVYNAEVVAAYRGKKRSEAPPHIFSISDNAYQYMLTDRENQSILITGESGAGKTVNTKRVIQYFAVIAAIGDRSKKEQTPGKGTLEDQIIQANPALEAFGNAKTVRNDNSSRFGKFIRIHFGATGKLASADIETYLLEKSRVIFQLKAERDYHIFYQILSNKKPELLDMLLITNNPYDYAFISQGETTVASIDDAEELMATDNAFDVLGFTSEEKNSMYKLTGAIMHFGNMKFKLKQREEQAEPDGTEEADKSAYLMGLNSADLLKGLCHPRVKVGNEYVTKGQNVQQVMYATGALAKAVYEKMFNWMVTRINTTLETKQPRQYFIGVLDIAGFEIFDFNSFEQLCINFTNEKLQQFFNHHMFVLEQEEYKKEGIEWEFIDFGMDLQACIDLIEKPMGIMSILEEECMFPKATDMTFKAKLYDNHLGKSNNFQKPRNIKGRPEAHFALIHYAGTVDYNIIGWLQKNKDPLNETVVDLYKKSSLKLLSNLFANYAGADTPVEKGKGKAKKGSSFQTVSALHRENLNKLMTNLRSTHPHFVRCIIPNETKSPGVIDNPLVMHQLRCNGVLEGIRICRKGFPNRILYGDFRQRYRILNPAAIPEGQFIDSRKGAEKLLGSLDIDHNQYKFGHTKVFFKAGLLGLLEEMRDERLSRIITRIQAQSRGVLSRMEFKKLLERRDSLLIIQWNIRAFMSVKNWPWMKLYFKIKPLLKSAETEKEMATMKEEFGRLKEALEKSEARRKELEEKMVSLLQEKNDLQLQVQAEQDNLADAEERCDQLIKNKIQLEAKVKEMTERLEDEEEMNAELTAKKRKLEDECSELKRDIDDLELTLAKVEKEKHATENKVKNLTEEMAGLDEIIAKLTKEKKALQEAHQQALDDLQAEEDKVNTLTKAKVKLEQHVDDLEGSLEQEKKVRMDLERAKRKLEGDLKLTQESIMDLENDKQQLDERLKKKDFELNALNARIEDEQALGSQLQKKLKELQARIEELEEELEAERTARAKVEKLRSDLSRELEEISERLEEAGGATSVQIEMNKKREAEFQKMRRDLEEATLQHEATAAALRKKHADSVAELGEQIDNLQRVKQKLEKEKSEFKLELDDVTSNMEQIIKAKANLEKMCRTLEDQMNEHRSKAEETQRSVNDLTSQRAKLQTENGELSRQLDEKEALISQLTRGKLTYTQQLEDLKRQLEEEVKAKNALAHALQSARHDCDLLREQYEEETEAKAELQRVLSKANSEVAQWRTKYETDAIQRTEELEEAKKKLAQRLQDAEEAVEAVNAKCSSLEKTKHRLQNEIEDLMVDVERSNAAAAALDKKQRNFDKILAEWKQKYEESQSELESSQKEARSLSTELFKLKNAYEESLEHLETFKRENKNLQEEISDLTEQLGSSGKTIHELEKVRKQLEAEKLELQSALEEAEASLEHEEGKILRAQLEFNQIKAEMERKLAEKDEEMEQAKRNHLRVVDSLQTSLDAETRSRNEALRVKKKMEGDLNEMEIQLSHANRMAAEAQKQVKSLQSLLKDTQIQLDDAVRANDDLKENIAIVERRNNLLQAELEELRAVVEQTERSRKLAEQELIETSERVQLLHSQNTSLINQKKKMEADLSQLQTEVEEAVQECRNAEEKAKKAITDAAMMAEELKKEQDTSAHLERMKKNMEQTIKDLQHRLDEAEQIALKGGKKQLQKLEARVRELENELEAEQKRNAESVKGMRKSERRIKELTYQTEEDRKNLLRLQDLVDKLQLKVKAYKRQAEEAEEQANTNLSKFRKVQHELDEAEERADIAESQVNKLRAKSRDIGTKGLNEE
# ASSAY INFO: Myofibril ATPase assay, porcine ventricle myofibrils
# Type: biochemical, porcine (Yucatan minipigs)
# CONDITION NOTES: porcine ventricle myofibrils; Y75 value
# Method: Example 1. Myofibril ATPase Assay Myofibril ATPase assays are known in the art to be useful in evaluating small molecules for the treatment of HCM and other cardiac indications. Myosin ATPase activity is assessed by using a coupled reaction system, in which ADP generated by the myosin ATPase function is coupled to the disappearance of NADH through the pyruvate kinase/lactate dehydrogenase (PK-LDH) system. […]
QUANTITY: Ventricular EC25 (µM)

Exercise: Would you kindly share the measured Ventricular EC25 for Cc1c(CC(=O)N[C@@H](C)c2ccc(F)cc2F)c(=O)[nH]c2ccnc(Cl)c12 [compound 402] ?
Key: 0.19

Exercise: Would you kindly share the measured Ventricular EC25 for Cc1nccc2[nH]c(=O)c([C@H](C)C(=O)N[C@@H](C)c3ccc(C#N)cc3F)c(C)c12 (single isomer, unassigned) [compound 196] ?
Key: 4.23

Exercise: Would you kindly share the measured Ventricular EC25 for Cc1c(CC(=O)N[C@@H](CO)c2ccc(C#N)cc2F)c(=O)[nH]c2ccc(C#N)nc12 [compound 221] ?
Key: 45.66

Exercise: Would you kindly share the measured Ventricular EC25 for Cc1c(CC(=O)N[C@@H](c2ccc(F)cc2F)C(C)(C)O)c(=O)[nH]c2ccnc(C#N)c12 (single isomer, unassigned) [compound 279] ?
Key: 100.00

Exercise: Would you kindly share the measured Ventricular EC25 for Cc1c([C@@H](C)C(=O)N[C@@H](C)c2ccc(F)cc2F)c(=O)[nH]c2ccnc(OC(F)(F)F)c12 (single isomer, unassigned) [compound 347] ?
Key: 20.36

Exercise: Would you kindly share the measured Ventricular EC25 for Cc1nccc2[nH]c(=O)c(CC(=O)N[C@@H](C)c3ncc(F)cc3F)c(C)c12 (single isomer, unassigned) [compound 379] ?
Key: 5.81

Exercise: Would you kindly share the measured Ventricular EC25 for Cc1c(CC(=O)N[C@@H](C)c2ncc(F)cc2F)c(=O)[nH]c2ccnc(C#N)c12 (single isomer, unassigned) [compound 305] ?
Key: 0.57

Exercise: Would you kindly share the measured Ventricular EC25 for Cc1nccc2[nH]c(=O)c(CC(=O)N[C@H](C)c3ccc(C#N)cc3F)c(Cl)c12 [compound 151] ?
Key: 0.87

[P] Cc1c(CC(=O)N[C@@H](C)c2ccc(F)cc2F)c(=O)[nH]c2ccnc(C#N)c12 [compound 355]
[Q] CCCOc1nccc2[nH]c(=O)c(CC(=O)N[C@@H](C)c3ccc(F)cc3F)c(C)c12 [compound 384]
[R] Cc1c(CC(=O)N[C@H](C)c2ccc(C#N)cn2)c(=O)[nH]c2ccnc(C#N)c12 [compound 157]
[S] Cc1c([C@@H](Cc2ccccc2)C(=O)N[C@@H](C)c2ccc(F)cc2F)c(=O)[nH]c2ccnc(F)c12 (single isomer, unassigned) [compound 358]
Exercise: Please give the order of these compounds when sorted by Ventricular EC25, largest value leading. Record the ranking as a list of labels in the requested order.
Key: S, R, Q, P
(S: 54.71 µM, R: 26.29 µM, Q: 11.67 µM, P: 0.14 µM)

[1] Cc1c(C(F)(F)C(=O)N[C@@H](CO)c2ncc(C#N)cc2F)c(=O)[nH]c2ccnc(C#N)c12 (single isomer, unassigned) [compound 3504]
[2] Cc1nc([C@H](C)NC(=O)Cc2c(C)c3c(C)nccc3[nH]c2=O)ncc1C#N [compound 479]
Exercise: Between 1 and 2 , which one shows the smaller Ventricular EC25 number? Answer format: the label of the selected item.
Key: 1
(1: 4.90 µM, 2: 100.00 µM)

[A] C[C@H](NC(=O)Cc1cc2c(OCC(F)(F)F)nccc2[nH]c1=O)c1ccc(F)cc1F [compound 436]
[B] Cc1nccc2[nH]c(=O)c(CC(=O)N[C@H]3CNc4cc(F)cc(F)c43)c(C)c12 (single isomer, unassigned) [compound 182]
Exercise: Ventricular EC25 comparison. Which is larger, A or B ? Answer format: the label of the selected item.
Key: A
(A: 100.00 µM, B: 35.91 µM)
